Molecular target: T1, ZFP SBS#379 (synthetic)
T1 chain: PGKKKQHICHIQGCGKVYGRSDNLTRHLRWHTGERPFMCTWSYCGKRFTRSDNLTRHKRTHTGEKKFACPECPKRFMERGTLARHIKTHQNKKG
Experiment: EMSA
Details: tags: MBP fusion
measuredQuantity: pKd
Give only the number. pKd is defined as minus log10 of concentration in molar units.

## Input Output measured pKd for this item: GCCGAGGAGA (dsDNA) DNA 1: GCCGAGGAGA DNA 2: TCTCCTCGGC
## Output 8.52

Reference source: patent US20030068675
